assay_system: FLT3-ITD (Homo sapiens (Human), UniProt P36888, INS600HVDFREYEYD)
Sequence (P36888 other isoform, or with tags, fused parts or gaps limits assumed, stated change not applied): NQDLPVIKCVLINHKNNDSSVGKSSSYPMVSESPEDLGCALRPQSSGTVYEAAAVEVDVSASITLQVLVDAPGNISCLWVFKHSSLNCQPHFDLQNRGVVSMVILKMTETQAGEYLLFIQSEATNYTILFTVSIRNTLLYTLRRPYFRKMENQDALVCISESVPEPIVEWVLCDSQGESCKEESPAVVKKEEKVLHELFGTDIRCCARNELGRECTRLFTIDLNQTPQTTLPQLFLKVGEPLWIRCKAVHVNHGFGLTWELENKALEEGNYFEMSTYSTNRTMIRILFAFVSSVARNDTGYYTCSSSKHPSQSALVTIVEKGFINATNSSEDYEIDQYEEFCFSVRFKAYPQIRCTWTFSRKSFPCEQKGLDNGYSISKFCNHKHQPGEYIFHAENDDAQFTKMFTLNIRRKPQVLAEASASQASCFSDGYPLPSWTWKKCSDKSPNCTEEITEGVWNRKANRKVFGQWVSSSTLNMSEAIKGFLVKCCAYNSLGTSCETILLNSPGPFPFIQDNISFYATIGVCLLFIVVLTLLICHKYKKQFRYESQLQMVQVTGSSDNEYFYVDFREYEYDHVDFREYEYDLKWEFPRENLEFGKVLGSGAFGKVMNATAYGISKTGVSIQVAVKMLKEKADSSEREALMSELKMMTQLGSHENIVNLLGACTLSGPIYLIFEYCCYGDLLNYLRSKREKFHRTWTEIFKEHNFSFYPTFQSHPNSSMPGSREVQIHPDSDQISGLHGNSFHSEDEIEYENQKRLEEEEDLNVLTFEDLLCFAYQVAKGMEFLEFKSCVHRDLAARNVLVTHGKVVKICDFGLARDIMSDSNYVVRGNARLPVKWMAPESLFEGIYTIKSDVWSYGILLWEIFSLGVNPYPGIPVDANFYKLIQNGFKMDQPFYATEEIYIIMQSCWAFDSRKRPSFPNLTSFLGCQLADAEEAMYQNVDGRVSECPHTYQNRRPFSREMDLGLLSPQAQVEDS
test_method_notes: pFLT3 MSD assay, Ba/F3 FLT3-ITD
measurement_conditions: Ba/F3 FLT3-ITD cells, 2 hours, read-out: BaF3-FLT3-ITD pFlt3 IC50
measured_metric: IC50

Some compounds with recorded IC50:
[in] State its IC50 for this compound: "O=C(Cc1ccc(-c2cnc3[nH]c(CO)cc3c2)cc1F)Nc1cc(C2(C(F)(F)F)CC2)on1"
[out] < 10 nM

[in] Look up and state reported IC50 for "O=C(Cc1ccc(-c2cnc3[nH]c(C(=O)N4CC(O)C4)cc3c2)cc1F)Nc1cc(C2(C(F)(F)F)CC2)on1"
[out] < 10 nM

[in] Check the records and state IC50 for "O=C(Cc1ccc(-c2cnc3[nH]c(C(=O)O)cc3c2)cc1F)Nc1cc(C2(C(F)(F)F)CC2)on1"
[out] 10 to 20 nM

Switching to the query record.
[in] Identify IC50 associated with the compound "CN(C)Cc1cc2cc(-c3ccc(CC(=O)Nc4cc(C(C)(C)C)on4)cc3)cnc2[nH]1"
[out] < 10 nM

----------
assay_system: KIT kinase (Homo sapiens (Human))
Sequence (P10721 26-976): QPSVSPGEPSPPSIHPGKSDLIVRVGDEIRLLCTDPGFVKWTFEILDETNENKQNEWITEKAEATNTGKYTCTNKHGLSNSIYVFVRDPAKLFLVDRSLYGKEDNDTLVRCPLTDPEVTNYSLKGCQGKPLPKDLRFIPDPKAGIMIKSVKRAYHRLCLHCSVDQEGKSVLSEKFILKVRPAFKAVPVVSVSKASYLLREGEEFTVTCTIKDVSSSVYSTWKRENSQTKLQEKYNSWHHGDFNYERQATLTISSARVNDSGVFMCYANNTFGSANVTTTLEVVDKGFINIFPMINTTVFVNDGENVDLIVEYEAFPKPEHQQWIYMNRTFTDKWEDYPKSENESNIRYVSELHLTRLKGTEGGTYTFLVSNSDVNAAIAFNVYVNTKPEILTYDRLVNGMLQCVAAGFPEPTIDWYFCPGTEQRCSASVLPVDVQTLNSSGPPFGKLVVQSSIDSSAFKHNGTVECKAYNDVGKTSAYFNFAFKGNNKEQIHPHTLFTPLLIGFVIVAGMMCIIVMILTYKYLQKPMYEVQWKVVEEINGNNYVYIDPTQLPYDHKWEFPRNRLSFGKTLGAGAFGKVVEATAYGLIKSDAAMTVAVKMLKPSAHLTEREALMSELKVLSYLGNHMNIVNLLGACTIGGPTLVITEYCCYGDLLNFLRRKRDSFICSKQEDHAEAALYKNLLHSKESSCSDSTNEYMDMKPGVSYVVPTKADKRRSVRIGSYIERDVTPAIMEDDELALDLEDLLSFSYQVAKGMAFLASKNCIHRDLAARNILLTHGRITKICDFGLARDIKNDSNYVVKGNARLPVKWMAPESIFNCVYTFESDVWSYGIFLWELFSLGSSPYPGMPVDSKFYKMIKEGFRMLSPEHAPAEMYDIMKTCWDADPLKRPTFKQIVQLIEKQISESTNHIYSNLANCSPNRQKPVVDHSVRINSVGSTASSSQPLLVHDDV
test_method_notes: Competition binding assay (Kd), KIT
measurement_conditions: competition binding assay
Known Kd of a selection of compounds

Some compounds with recorded Kd:
[in] Output measured Kd for this item: "COc1cc2ncc(-c3ccc(CC(=O)Nc4cc(C(C)(C)C(F)(F)F)on4)c(F)c3)nc2cc1O"
[out] < 5 nM

[in] Give the reported Kd for this compound. "COCCOc1cc2nc(-c3ccc(CC(=O)Nc4cc(C5(C(F)(F)F)CC5)on4)c(F)c3)cnc2cc1OC"
[out] < 5 nM

[in] State its Kd: "COc1cc2nc(-c3ccc(CC(=O)Nc4cc(C5(C(F)(F)F)CC5)on4)c(F)c3)cnc2cc1OCCN1CCN(C)CC1"
[out] < 5 nM

Next up:
[in] For the compound "COc1cc2ncc(-c3ccc(CC(=O)Nc4cc(C5(C(F)(F)F)CC5)on4)c(F)c3)cc2cc1OCCO" , report Kd.
[out] < 5 nM

----------
Listing of recorded IC50 by entry.
assay_system: FLT3-ITD (Homo sapiens (Human), UniProt P36888, INS600HVDFREYEYD)
test_method_notes: pFLT3 MSD assay, Ba/F3 FLT3-ITD
Assay type: cell-based
measurement_conditions: Ba/F3 FLT3-ITD cells, 2 hours, read-out: BaF3-FLT3-ITD pFlt3 IC50

Please review the following examples before continuing.
[in] Look up IC50 of "CCOc1cc2ncc(-c3ccc(CC(=O)Nc4cc(C5(C(F)(F)F)CC5)on4)c(F)c3)nc2cc1OCC" and report it.
[out] < 0.01 µM

[in] Could you please provide reported IC50 for "COc1cc2nc(-c3ccc(CC(=O)Nc4cc(C5(C(F)(F)F)CC5)on4)c(F)c3)cnc2cc1OCCNC(C)=O" ? Thanks!
[out] < 0.01 µM

[in] Given the compound "CN(C)c1n[nH]c2ncc(-c3ccc(CC(=O)Nc4cc(C5(C(F)(F)F)CC5)on4)c(F)c3)cc12" , write its reported IC50.
[out] < 0.01 µM

[in] Complete the entry with IC50 for "COCCOc1cc2nc(-c3ccc(CC(=O)Nc4cc(C(C)(C)C(F)(F)F)on4)c(F)c3)cnc2cc1OC"
[out] < 0.01 µM

[in] For the compound "CC(C)(C)c1cc(NC(=O)Cc2ccc(-c3cnc4[nH]ccc4c3)cc2F)no1" , give its measured IC50 value.
[out] < 0.01 µM

[in] Output IC50 of "COCCOc1cc2ncc(-c3ccc(CC(=O)Nc4cc(C5(C(F)(F)F)CC5)on4)c(F)c3)cc2cc1OC"
[out] < 0.01 µM

Now for another entry.
[in] Give IC50 for "CC(C)(c1cc(NC(=O)Cc2ccc(-c3cnc4[nH]ncc4c3)cc2)no1)C(F)(F)F"
[out] < 0.01 µM
